Ref: paper PMC10035951

Biological target: hCA I (Homo sapiens)
Construct: made in house
Sequence (P00915 whole entry): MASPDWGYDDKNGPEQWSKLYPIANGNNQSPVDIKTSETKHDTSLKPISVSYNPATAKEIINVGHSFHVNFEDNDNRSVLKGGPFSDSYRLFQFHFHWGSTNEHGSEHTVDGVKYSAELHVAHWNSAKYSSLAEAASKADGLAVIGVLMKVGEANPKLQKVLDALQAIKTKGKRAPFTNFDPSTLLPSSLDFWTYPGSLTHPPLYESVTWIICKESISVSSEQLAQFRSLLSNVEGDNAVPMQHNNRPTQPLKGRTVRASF
Assay: CA catalysed CO2 hydration, stopped-flow inhibition
Format: biochemical
Details: recombinant hCA I, stopped-flow CO2 hydration, 15 min preincubation; read-out: Ki hCA I
Hi! Could you tag entries with Ki below 60 µM as TRUE, and those at or above as FALSE? Much appreciated.

{"columns": ["molecule", "class"],
 "data": [
  ["C#CC[Se]C(=O)c1ccccc1Nc1cccc(C)c1C [Compound 18b]", "FALSE"]
]}

Task: Strictly below 60 µM: is that where Ki of C#CC[Se]C(=O)c1sccc1Cl [Compound 10b] sits?
Output: FALSE

Task: Strictly below 60 µM: is that where Ki of C#CC[Se]C(=O)C12CC3CC(CC(C3)C1)C2 sits?
Output: FALSE

Task: Strictly below 60 µM: is that where Ki of C=CC[Se]C(=O)[C@@H](C)c1ccc2cc(OC)ccc2c1 [Compound 16a] sits?
Output: FALSE

Task: Strictly below 60 µM: is that where Ki of C#CC[Se]C(=O)Cc1c(C)n(C(=O)c2ccc(Cl)cc2)c2ccc(OC)cc12 [Compound 17b] sits?
Output: FALSE

Task: Strictly below 60 µM: is that where Ki of C=CC[Se]C(=O)c1ccco1 [Compound 11a] sits?
Output: FALSE

Task: Strictly below 60 µM: is that where Ki of C#CC[Se]C(=O)C(C)c1ccc(CC(C)C)cc1 (stereo not drawn) [Compound 15b] sits?
Output: FALSE

Task: Strictly below 60 µM: is that where Ki of C#CC[Se]C(=O)c1ccc2c(c1)OCO2 sits?
Output: TRUE

Task: Strictly below 60 µM: is that where Ki of C#CC[Se]C(=O)[C@@H](C)c1ccc2cc(OC)ccc2c1 [Compound 16b] sits?
Output: FALSE

Task: Strictly below 60 µM: is that where Ki of C=CC[Se]C(=O)C12CC3CC(CC(C3)C1)C2 sits?
Output: FALSE

Task: Strictly below 60 µM: is that where Ki of C#CC[Se]C(=O)c1cccs1 sits?
Output: TRUE

Task: Strictly below 60 µM: is that where Ki of C=CC[Se]C(=O)c1sccc1Cl [Compound 10a] sits?
Output: FALSE

Task: Strictly below 60 µM: is that where Ki of C=CC[Se]C(=O)c1cccnc1Cl sits?
Output: FALSE

----------
Target: hCA IX (Homo sapiens)
Test: CA catalysed CO2 hydration, stopped-flow inhibition
Settings: recombinant hCA IX, stopped-flow CO2 hydration, 15 min preincubation
measured_endpoint: log10 of Ki (log10 of the value in µM)
Answers are given as log10 of Ki in µM.

{"columns": ["molecule", "data_value"],
 "data": [
  ["C#CC[Se]C(=O)Cc1c(C)n(C(=O)c2ccc(Cl)cc2)c2ccc(OC)cc12 [Compound 17b]", 1.77],
  ["C#CC[Se]C(=O)c1ccccc1Nc1cccc(C)c1C [Compound 18b]", 0.98],
  ["C#CC[Se]C(=O)c1ccccc1Nc1cccc(C(F)(F)F)c1 [Compound 19b]", 0.98],
  ["C#CC[Se]C(=O)c1ccccc1", 0.89],
  ["C#CC[Se]C(=O)c1ccno1 [Compound 12b]", 1.35]
]}

Item: C#CC[Se]C(=O)[C@@H](C)c1ccc2cc(OC)ccc2c1 [Compound 16b] | log10 of Ki: 1.39

Item: C#CC[Se]C(=O)c1ccccc1Cl | log10 of Ki: 1.62

Item: C=CC[Se]C(=O)c1cccnc1Cl | log10 of Ki: 1.95

----------
Each entry below carries its recorded pKi.
Target: hCA IX (Homo sapiens)
Assay: CA catalysed CO2 hydration, stopped-flow inhibition
Conditions: recombinant hCA IX, stopped-flow CO2 hydration, 15 min preincubation
// pKi here means minus log10 of the molar concentration (mol/L)

Record excerpt, results attached:
{"columns": ["compound", "pKi"],
 "data": [
  ["C#CC[Se]C(=O)c1ccco1 [Compound 11b]", 5.15],
  ["C#CC[Se]C(=O)c1cccnc1Cl", 4.31]
]}

Please turn your attention to the following entry.
Item: C#CC[Se]C(=O)c1cccnc1 | pKi: 4.42

----------
Biological target: hCA IX (Homo sapiens, UniProt Q16790)
Construct: made in house
Test: CA catalysed CO2 hydration, stopped-flow inhibition
Assay type: biochemical
Conditions: recombinant hCA IX, stopped-flow CO2 hydration, 15 min preincubation
measured_endpoint: Ki (µM)
I only need the number, in µM, no unit after it.

Record excerpt, results attached:
{"columns": ["compound", "data_value"],
 "data": [
  ["C#CC[Se]C(=O)c1ccc2c(c1)OCO2 [Compound 4b]", 67.7],
  ["C#CC[Se]C(=O)C12CC3CC(CC(C3)C1)C2 [Compound 1b]", 9.1]
]}

Item: C#CC[Se]C(=O)C(C)c1ccc(CC(C)C)cc1 (stereo not drawn) [Compound 15b] | Ki: 47.7

----------
Molecular target: hCA XII (Homo sapiens)
Construct: made in house
Sequence (O43570 25-354): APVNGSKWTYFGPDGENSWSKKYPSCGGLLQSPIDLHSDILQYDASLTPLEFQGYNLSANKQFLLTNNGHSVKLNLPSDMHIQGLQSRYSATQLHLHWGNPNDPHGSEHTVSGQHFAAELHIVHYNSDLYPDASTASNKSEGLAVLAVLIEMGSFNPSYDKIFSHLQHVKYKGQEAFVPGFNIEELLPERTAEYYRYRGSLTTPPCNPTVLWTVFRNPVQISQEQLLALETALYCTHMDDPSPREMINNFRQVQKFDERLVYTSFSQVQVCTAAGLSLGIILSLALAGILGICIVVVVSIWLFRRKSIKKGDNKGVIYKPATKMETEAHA
Experiment: CA catalysed CO2 hydration, stopped-flow inhibition
Type: biochemical
Settings: recombinant hCA XII, stopped-flow CO2 hydration, 15 min preincubation; read-out: Ki hCA XII
Each entry below carries its recorded Ki.
I only need the number, in µM, no unit after it.

Record excerpt, results attached:
{"columns": ["molecule", "unit_name", "Ki"],
 "data": [
  ["C#CC[Se]C(=O)c1ccno1 [Compound 12b]", "µM", 66.6],
  ["C#CC[Se]C(=O)c1ccccc1Nc1cccc(C)c1C [Compound 18b]", "µM", 46.3],
  ["C#CC[Se]C(=O)c1cccnc1Cl", "µM", 9.6],
  ["C#CC[Se]C(=O)c1cccnc1", "µM", 85.1],
  ["C#CC[Se]C(=O)C12CC3CC(CC(C3)C1)C2", "µM", 28.4],
  ["C#CC[Se]C(=O)c1ccccc1OC(C)=O [Compound 14b]", "µM", 89.7]
]}

Item: C#CC[Se]C(=O)c1cccs1 | Ki: 97

Item: C#CC[Se]C(=O)c1sccc1Cl [Compound 10b] | Ki: 98.5

Item: C#CC[Se]C(=O)c1ccco1 [Compound 11b] | Ki: 59.6

Item: C#CC[Se]C(=O)c1ccccc1 | Ki: 55.7

----------
Molecular target: hCA IX (Homo sapiens)
Test: CA catalysed CO2 hydration, stopped-flow inhibition
Settings: recombinant hCA IX, stopped-flow CO2 hydration, 15 min preincubation
measured_endpoint: Ki

Record excerpt, results attached:
{"columns": ["molecule", "measured_endpoint", "data_value"],
 "data": [
  ["C=CC[Se]C(=O)c1ccno1 [Compound 12a]", "Ki", "> 100 µM"],
  ["C=CC[Se]C(=O)c1sccc1Cl [Compound 10a]", "Ki", "> 100 µM"]
]}

Please turn your attention to the following entry.
Item: C#CC[Se]C(=O)c1ccccc1OC(C)=O [Compound 14b] | Ki: > 100 µM

----------
Each entry below carries its recorded Ki.
Target: hCA I (Homo sapiens)
Construct: made in house
Experiment: CA catalysed CO2 hydration, stopped-flow inhibition
Assay type: biochemical
Conditions: recombinant hCA I, stopped-flow CO2 hydration, 15 min preincubation; read-out: Ki hCA I
Description: The uncatalyzed rates were determined in the same manner and subtracted from the total observed rates. Stock solutions of inhibitor (0.1 mM) were prepared in distilled − deionized water and dilutions up to 0.01 nM were done thereafter with the assay buffer. Inhibitor and enzyme solutions were preincubated together for 15 min at room temperature before assay to allow for the formation of the E − I complex. […]
I only need the number, in µM, no unit after it.

Record excerpt, results attached:
{"columns": ["molecule", "target_under_test", "Ki [µM]"],
 "data": [
  ["C#CC[Se]C(=O)c1ccccc1OC(C)=O [Compound 14b]", "hCA I (Homo sapiens)", 5],
  ["C#CC[Se]C(=O)c1ccco1 [Compound 11b]", "hCA I (Homo sapiens)", 8.5],
  ["C#CC[Se]C(=O)C=Cc1ccccc1 [Compound 5b]", "hCA I (Homo sapiens)", 24.1],
  ["C#CC[Se]C(=O)c1cccnc1 [Compound 7b]", "hCA I (Homo sapiens)", 30.2],
  ["C#CC[Se]C(=O)c1ccccc1 [Compound 2b]", "hCA I (Homo sapiens)", 80.5],
  ["C#CC[Se]C(=O)c1cccnc1Cl [Compound 8b]", "hCA I (Homo sapiens)", 2.2],
  ["C#CC[Se]C(=O)c1ccno1 [Compound 12b]", "hCA I (Homo sapiens)", 58.4]
]}

Please turn your attention to the following entry.
Item: C#CC[Se]C(=O)c1ccccc1O [Compound 13b] | Ki: 23.3

----------
Biological target: hCA IX (Homo sapiens, UniProt Q16790)
Experiment: CA catalysed CO2 hydration, stopped-flow inhibition
Settings: recombinant hCA IX, stopped-flow CO2 hydration, 15 min preincubation
pKi: −log10 of the molar value.
measured_endpoint: pKi

{"columns": ["molecule", "data_value"],
 "data": [
  ["C=CC[Se]C(=O)C12CC3CC(CC(C3)C1)C2 [Compound 1a]", "< 4.00"],
  ["C=CC[Se]C(=O)c1cccs1 [Compound 9a]", "< 4.00"]
]}

Item: C#CC[Se]C(=O)c1sccc1Cl [Compound 10b] | pKi: < 4.00
